Test system: MV4-11
experimentalDetails: Growth inhibition of human MV4-11 cells after 3 days by Alamar blue assay
Type: functional
experimentalSetup: MV4-11, 72 h
measuredMetric: GI50 (nM)
I only need the number, in nM, no unit after it.

Examples with their reported GI50 follow.
[[record]]
smilesstring = "Nc1ncnc2c1c(-c1ccc(Oc3ccccc3)cc1)cn2[C@H]1CC[C@@H](N[C@H](Cc2ccc(O)cc2)C(=O)O)CC1"
reportedresult = 18

[[record]]
smilesstring = "CN1CCN([C@H]2CC[C@H](n3cc(-c4ccc(Oc5ccccc5)cc4)c4c(N)ncnc43)CC2)CC1"
reportedresult = 40

[[record]]
smilesstring = "CC(C)C[C@H](N[C@H]1CC[C@H](n2cc(-c3ccc(Oc4ccccc4)cc3)c3c(N)ncnc32)CC1)C(=O)O"
reportedresult = 21

[[record]]
smilesstring = "Nc1ncnc2c1c(-c1ccc(Oc3ccccc3)cc1)cn2[C@H]1CC[C@@H](N[C@H](Cc2ccccc2)C(=O)O)CC1"
reportedresult = 26

[[record]]
smilesstring = "Nc1ncnc2c1c(-c1ccc(Oc3ccccc3)cc1)cn2[C@H]1CC[C@@H](N[C@H]2CCOC2=O)CC1"
reportedresult = 29


Shift focus to the following entry.
molecule Nc1ncnc2c1c(-c1ccc(Oc3ccccc3)cc1)cn2[C@H]1CC[C@H](NCC(=O)O)CC1 , GI50 observed: 98

---

# UniProtKB P08631: pIC50 values follow
Please report pIC50 as the negative decimal logarithm of the molar concentration, giving only the number.

Examples with their reported pIC50 follow.
[[record]]
smilesstring = "Nc1ncnc2c1c(-c1ccc(Oc3ccccc3)cc1)cn2[C@H]1CC[C@@H](NCC(=O)O)CC1"
reportedresult = 7.92

[[record]]
smilesstring = "CC(C)C[C@@H](N[C@H]1CC[C@H](n2cc(-c3ccc(Oc4ccccc4)cc3)c3c(N)ncnc32)CC1)C(=O)O"
reportedresult = 7.57

[[record]]
smilesstring = "Nc1ncnc2c1c(-c1ccc(Oc3ccccc3)cc1)cn2[C@H]1CC[C@H](N[C@H](Cc2ccccc2)C(=O)O)CC1"
reportedresult = 7.62

[[record]]
smilesstring = "Nc1ncnc2c1c(-c1ccc(Oc3ccccc3)cc1)cn2[C@H]1CC[C@H](NCCC(=O)O)CC1"
reportedresult = 7.82

[[record]]
smilesstring = "Nc1ncnc2c1c(-c1ccc(Oc3ccccc3)cc1)cn2[C@H]1CC[C@H](N[C@H](Cc2ccc(O)cc2)C(=O)O)CC1"
reportedresult = 7.82

[[record]]
smilesstring = "C[C@@H](N[C@H]1CC[C@H](n2cc(-c3ccc(Oc4ccccc4)cc3)c3c(N)ncnc32)CC1)C(=O)O"
reportedresult = 7.44

[[record]]
smilesstring = "Nc1ncnc2c1c(-c1ccc(Oc3ccccc3)cc1)cn2[C@H]1CC[C@@H](N[C@H](Cc2ccc(O)cc2)C(=O)O)CC1"
reportedresult = 7.89


Considering CC(C)CCN[C@H]1CC[C@H](n2cc(-c3ccc(Oc4ccccc4)cc3)c3c(N)ncnc32)CC1 , its pIC50 with UniProtKB P08631 was recorded as 6.65

---

targetOrTestSystem: Tyrosine-protein kinase HCK (Homo sapiens)
Sequence (P08631 whole entry): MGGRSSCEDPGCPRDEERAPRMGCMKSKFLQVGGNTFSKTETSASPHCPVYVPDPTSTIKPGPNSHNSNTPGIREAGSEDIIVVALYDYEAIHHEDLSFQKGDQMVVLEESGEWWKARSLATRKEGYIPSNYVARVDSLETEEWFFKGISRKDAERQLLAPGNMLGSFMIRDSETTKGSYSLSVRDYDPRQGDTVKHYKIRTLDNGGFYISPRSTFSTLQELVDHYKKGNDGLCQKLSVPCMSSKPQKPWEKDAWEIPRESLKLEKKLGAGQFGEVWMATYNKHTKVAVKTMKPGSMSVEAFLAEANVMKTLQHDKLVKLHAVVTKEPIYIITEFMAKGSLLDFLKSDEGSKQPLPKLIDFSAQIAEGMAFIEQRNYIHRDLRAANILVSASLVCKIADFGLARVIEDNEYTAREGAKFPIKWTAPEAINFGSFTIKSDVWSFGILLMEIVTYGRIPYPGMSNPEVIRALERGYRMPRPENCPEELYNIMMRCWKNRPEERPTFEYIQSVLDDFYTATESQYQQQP
measuredMetric: log10 of IC50 (log10 of the value in µM)
Record value = log10 of IC50 given in µM.

Examples with their reported log10 of IC50 follow.
[[record]]
smilesstring = "CC(C)CCN[C@H]1CC[C@@H](n2cc(-c3ccc(Oc4ccccc4)cc3)c3c(N)ncnc32)CC1"
reportedresult = -0.92

[[record]]
smilesstring = "Nc1ncnc2c1c(-c1ccc(Oc3ccccc3)cc1)cn2[C@H]1CC[C@@H](N[C@H](Cc2ccccc2)C(=O)O)CC1"
reportedresult = -1.74

[[record]]
smilesstring = "Nc1ncnc2c1c(-c1ccc(Oc3ccccc3)cc1)cn2[C@H]1CC[C@H](N[C@@H](Cc2ccc(O)cc2)C(=O)O)CC1"
reportedresult = -2.13

[[record]]
smilesstring = "CC(C)C[C@@H](N[C@H]1CC[C@@H](n2cc(-c3ccc(Oc4ccccc4)cc3)c3c(N)ncnc32)CC1)C(=O)O"
reportedresult = -0.86

[[record]]
smilesstring = "Nc1ncnc2c1c(-c1ccc(Oc3ccccc3)cc1)cn2[C@H]1CC[C@@H](N[C@@H](Cc2ccccc2)C(=O)O)CC1"
reportedresult = -1.13

[[record]]
smilesstring = "Nc1ncnc2c1c(-c1ccc(Oc3ccccc3)cc1)cn2[C@H]1CC[C@@H](N2CCC[C@@H]2C(=O)O)CC1"
reportedresult = -1.19


Considering Nc1ncnc2c1c(-c1ccc(Oc3ccccc3)cc1)cn2[C@H]1CC[C@@H](N2CCC[C@H]2C(=O)O)CC1 , its log10 of IC50 with Tyrosine-protein kinase HCK (Homo sapiens) was recorded as -1.10

Considering Nc1ncnc2c1c(-c1ccc(Oc3ccccc3)cc1)cn2[C@H]1CC[C@H](N[C@H]2CCOC2=O)CC1 , its log10 of IC50 with Tyrosine-protein kinase HCK (Homo sapiens) was recorded as -1.55

Considering CN1CCN([C@H]2CC[C@H](n3cc(-c4ccc(Oc5ccccc5)cc4)c4c(N)ncnc43)CC2)CC1 , its log10 of IC50 with Tyrosine-protein kinase HCK (Homo sapiens) was recorded as -3.40

Considering CC(C)C[C@H](N[C@H]1CC[C@H](n2cc(-c3ccc(Oc4ccccc4)cc3)c3c(N)ncnc32)CC1)C(=O)O , its log10 of IC50 with Tyrosine-protein kinase HCK (Homo sapiens) was recorded as -2.36
